species on record: Rattus norvegicus; test: Open TG-GATES - Regimen: Single; assay type: toxicity, organism-based, Sprague-Dawley; set-up: regimen Single, gender Male, age 6 weeks; conditions: in vivo, po, 0 mg/kg, 6 h, tissue Blood, route gavage, dose level Control
Exercise: state measured Fbg for each of the molecules provided.
One number for each entry, in mg/dL.

>>> print(df.to_string())
                                   molecule  measured_quantity  measured_value
0     CC(S)C(=O)NCC(=O)O (stereo not drawn)                Fbg           295.4
1  COc1ccc([C@@H]2Sc3ccccc3N(CCN(C)C)C(=O)[C@@H]2OC(C)=O)cc1                Fbg             280

Annotate the molecule C=C[C@H]1C[N@@]2CC[C@H]1C[C@@H]2[C@@H](O)c1ccnc2ccc(OC)cc12 with its measured Fbg. 318.2

The origin of these recorded values is ChEMBL document CHEMBL3885861.
